# TARGET_UNDER_TEST: CDK5/GST-p25 (Homo sapiens)
# Construct: The final construct, encoding for full-length human CDK5; made in house; host or cells: Sf21 insect cells (baculovirus co-infection)
# Sequence (Q00535 whole entry): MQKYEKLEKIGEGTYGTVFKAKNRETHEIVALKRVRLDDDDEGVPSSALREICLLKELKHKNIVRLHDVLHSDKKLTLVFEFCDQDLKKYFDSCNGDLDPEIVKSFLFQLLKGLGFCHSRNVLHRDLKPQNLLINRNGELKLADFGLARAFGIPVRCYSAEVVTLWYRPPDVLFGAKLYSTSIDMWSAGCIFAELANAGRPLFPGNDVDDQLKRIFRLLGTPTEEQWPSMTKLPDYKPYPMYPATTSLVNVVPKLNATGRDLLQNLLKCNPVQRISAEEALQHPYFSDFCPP
# Sequence (Q15078 108-307 partner limits assumed): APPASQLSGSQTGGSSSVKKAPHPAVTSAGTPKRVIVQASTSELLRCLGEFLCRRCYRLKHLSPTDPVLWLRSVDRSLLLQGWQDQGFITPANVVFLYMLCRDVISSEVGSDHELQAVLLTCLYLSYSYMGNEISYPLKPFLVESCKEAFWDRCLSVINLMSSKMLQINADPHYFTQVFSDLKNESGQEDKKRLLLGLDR
# ASSAY_TEXT: Inhibition of CDK5/GST-p25 kinase activity (ELISA with time-resolved fluorescence readout)
# Type: biochemical
# RUN_PARAMETERS: class symbols
pIC50: −log10 of the molar value.
Measured pIC50, listed per entry for reference.
OBSERVATION_TYPE: pIC50

[
  {
    "COMPOUND": "COCCn1cc2c(C3C(=O)Nc4ccc(Br)cc43)nc(NC[C@@H](C)O)nc2n1 (stereo partly drawn) [Example 231]",
    "ASSAY_RESULT": "> 6.52"
  },
  {
    "COMPOUND": "O=C1Nc2cc(F)ccc2C1c1ncnc2nn(C3CCCCC3)cc12 (stereo not drawn) [Example 50]",
    "ASSAY_RESULT": "5.52 to 6.52"
  },
  {
    "COMPOUND": "N#Cc1ccc2c(c1)NC(=O)C2c1ncnc2c1cnn2C1CCCC1 (stereo not drawn) [Example 63]",
    "ASSAY_RESULT": "< 5.00"
  },
  {
    "COMPOUND": "O=C1Nc2ccc(Br)cc2C1c1nc(NCc2ccccn2)nc2nn(C3CCCC3)cc12 (stereo not drawn) [Example 179]",
    "ASSAY_RESULT": "5.52 to 6.52"
  },
  {
    "COMPOUND": "CC(C)Cn1cc2c(C3C(=O)Nc4ccc(Cl)cc43)nc(NCCN(C)C)nc2n1 (stereo not drawn) [Example 270]",
    "ASSAY_RESULT": "5.52 to 6.52"
  },
  {
    "COMPOUND": "O=C1Nc2ccc(Cl)cc2C1c1nc(NCCCN2CCOCC2)nc2nn(C3CCCC3)cc12 (stereo not drawn) [Example 278]",
    "ASSAY_RESULT": "5.52 to 6.52"
  },
  {
    "COMPOUND": "C[C@H](O)CNc1nc(C2C(=O)Nc3ccc(Br)cc32)c2cn(C)nc2n1 (stereo partly drawn) [Example 304]",
    "ASSAY_RESULT": "> 6.52"
  },
  {
    "COMPOUND": "CC(C)Cn1cc2c(C3C(=O)Nc4ccc(Br)cc43)nc(NCCN(C)C)nc2n1 (stereo not drawn) [Example 268]",
    "ASSAY_RESULT": "> 6.52"
  },
  {
    "COMPOUND": "CCOCCn1cc2c(C3C(=O)Nc4ccc(Br)cc43)nc(NCCN3CCOCC3)nc2n1 (stereo not drawn) [Example 240]",
    "ASSAY_RESULT": "> 6.52"
  },
  {
    "COMPOUND": "CCCn1cc2c(C3C(=O)Nc4ccc(C#N)cc43)nc(NCCc3ccccn3)nc2n1 (stereo not drawn) [Example 187]",
    "ASSAY_RESULT": "> 6.52"
  },
  {
    "COMPOUND": "N#Cc1ccc2c(c1)NC(=O)C2c1ncnc2nn(C3CCCC3)cc12 (stereo not drawn) [Example 38]",
    "ASSAY_RESULT": "< 5.00"
  },
  {
    "COMPOUND": "CN1CCN(c2nc3c(c(C4C(=O)Nc5ccc(C#N)cc54)n2)CCC3)CC1 (stereo not drawn) [Example 353]",
    "ASSAY_RESULT": "< 5.00"
  },
  {
    "COMPOUND": "O=C1Nc2ccc(Cl)cc2C1c1ncnc2c1cnn2C1CCCCC1 (stereo not drawn) [Example 74]",
    "ASSAY_RESULT": "< 5.00"
  },
  {
    "COMPOUND": "O=C1Nc2ccc(Cl)cc2C1c1ncnc2nn(C3CCCC3)cc12 (stereo not drawn) [Example 36]",
    "ASSAY_RESULT": "> 6.52"
  },
  {
    "COMPOUND": "CN(C)CCOc1nc(C2C(=O)Nc3ccc(C#N)cc32)c2cn(C3CCCC3)nc2n1 (stereo not drawn) [Example 122]",
    "ASSAY_RESULT": "< 5.00"
  },
  {
    "COMPOUND": "O=C1Nc2ccc(Br)cc2C1c1nc(NCCCN2CCOCC2)nc2c1CCC2 (stereo not drawn) [Example 331]",
    "ASSAY_RESULT": "< 5.00"
  },
  {
    "COMPOUND": "CCOCCNc1nc2c(c(C3C(=O)Nc4ccc(Cl)cc43)n1)CCC2 (stereo not drawn) [Example 325]",
    "ASSAY_RESULT": "< 5.00"
  },
  {
    "COMPOUND": "CCCn1cc2c(C3C(=O)Nc4ccc(Br)cc43)nc(NCc3ccncc3)nc2n1 (stereo not drawn) [Example 190]",
    "ASSAY_RESULT": "> 6.52"
  }
]
